Where do these numbers come from? They come from the RNAGym collection of RNA variant scans (doi:10.1126/science.aae0568).

B1: tRNA (parent)
chain: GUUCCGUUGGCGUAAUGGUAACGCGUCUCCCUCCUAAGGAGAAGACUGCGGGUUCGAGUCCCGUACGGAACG

variants of: B1; test: yeast fitness relative to wild type (ratio to wild type); higher = fitter; tRNA-Arg(CCU), competitive growth, 37 C, YPD
This sample holds only a part of the variants without activity.
recorded metric: yeast fitness
A bare number is all that is needed in reply.

Here's what some known entries look like.
1. GUUCCGUUGGCGUAAUGGUAACGCAUCUCCCUCCUAAGGAGACGACUGCGGGUUCGAGUACCGUACGGAACG [G25A A43C C60A]	0.544
2. GUUUCGUUGGCGUAAUGGUAACGCGUCUCCCUCCUAAGGAGAACACUGCGGGUUCGAGUCCCGUACAGAACG [C4U G44C G67A]	0.768
3. GUUCCGUUGGCGUAAUGGUAACGCGUCUCCCUCCUAAGCAGAAGAUUGCGGGUUCAAGUCCCGUACGGAACG [G39C C46U G56A]	0.694

Any idea what yeast fitness was measured for GUUCCGUUGGCGUAAUGGUAAAGCGUCUCCCUCCUAAGGAGAAGACUGCGGGUUCGAGUCGCGUACGGAACG [C22A C61G] ?
0.594

Any idea what yeast fitness was measured for GUUCCGUUGACGUAAUGGUAACGCGUCUGCCUCCUAAGGAGAAGACUGCGGGUUCGAGUCCCGUACGGAACG [G10A C29G] ?
0.522

Any idea what yeast fitness was measured for GUUCCGUUGGCGUAAUGAUAACGCGUCUCCCUCCUAAGGAGAAGACUGCGGGUUCGAGUCCCGUACGCAACG [G18A G68C] ?
0.662

Any idea what yeast fitness was measured for GUUCCGUUGGCGUAAUGGUAACGCGUCUCCCUCCAAAGGAGUUGACUGCGGGUUCGAGGCCCGUACGGAACG [U35A A42U A43U U59G] ?
0.541

Any idea what yeast fitness was measured for GUUCCGUUGGCGUAAUGGUAACGAGUCUCCCUCCUAAGGAGAAGACUGUGGGUUCGAGUCCCGUACGGAACG [C24A C49U] ?
0.614
